testedOn: T1, recombinant human CSF-1R (form not stated) (human, UniProt P07333 20-512, limits assumed)
T1 construct: for the ELISA no species is stated; also called recombinant CSF-1R; recombinant CSF-1R protein
assayText: BIAcore, mean of 3 (fourth row, unlabelled)
Experimental: The assay format was capture of the anti-CSF-1R antibodies by immobilised anti-human IgG,F(ab′)₂, then a titration of hCSF-1R/Fc over the captured surface. BIA (Biomolecular Interaction Analysis) was performed using a BIAcore 3000 (GE Healthcare Bio-Sciences AB). All experiments were performed at 25° C. […]
propertyLabel: pKd
Scale for pKd: -log10 of concentration given in mol/L; no unit attached.

GET /value?item= 969gH2gL4 (antibody, human IgG4 S228P, kappa, name in Kabat numbering, V domains shown, Humanised IgG4 (S241P)/kappa; positions are Kabat; also called Ab969.g7) VH: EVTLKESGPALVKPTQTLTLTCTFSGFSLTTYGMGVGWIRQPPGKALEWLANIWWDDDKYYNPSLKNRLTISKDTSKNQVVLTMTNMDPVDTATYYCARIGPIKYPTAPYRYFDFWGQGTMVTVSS VL: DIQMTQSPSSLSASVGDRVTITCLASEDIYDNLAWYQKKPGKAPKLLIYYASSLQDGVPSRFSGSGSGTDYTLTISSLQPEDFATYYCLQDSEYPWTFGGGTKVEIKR &field=pKd returns 11.43
